The entries below come with measured GI50 values attached.
# System: KM12
# assay.remarks: NCI tumour cell line growth inhibition, 48 h
Activity calls are given as the source filed them. Rule as the data show it: active = GI50 up to about 1.1 µM and inactive = higher.
metric: GI50

compound="COC1OC2COC1(OC)C1OC(C)(C)OC21 (stereo unspecified)" system_under_test=KM12 obs_value="> 100 µM (inactive)"
compound="CN(C(=O)C12C3C4C1C1C2C3C41C(N)=O)C(C)(C)C (stereo unspecified)" system_under_test=KM12 obs_value="> 100 µM (inactive)"
compound=O=C1C=CC(=O)c2c1cc1ccccc1c2O system_under_test=KM12 obs_value="13.2 µM (inactive)"
compound="Cc1ccc(C2(O)c3ccccc3C(=O)N(C)C2(O)c2ccc(C)cc2)cc1 (stereo unspecified)" system_under_test=KM12 obs_value="29.9 µM (inactive)"
compound="CC1CC2(OC2C)C(=O)OC2CCN(C)C/C=C(/COC(=O)C1(C)O)C2=O (stereo unspecified)" system_under_test=KM12 obs_value="> 100 µM (inactive)"
compound=COc1ccc2c(c1)[n+]([O-])c(C(C)=O)c(C)[n+]2[O-] system_under_test=KM12 obs_value="> 100 µM (inactive)"

This collection of values is drawn from ChEMBL document CHEMBL1201862.
